Target: ACE2 (Homo sapiens)
Sequence (Q9BYF1 18-805): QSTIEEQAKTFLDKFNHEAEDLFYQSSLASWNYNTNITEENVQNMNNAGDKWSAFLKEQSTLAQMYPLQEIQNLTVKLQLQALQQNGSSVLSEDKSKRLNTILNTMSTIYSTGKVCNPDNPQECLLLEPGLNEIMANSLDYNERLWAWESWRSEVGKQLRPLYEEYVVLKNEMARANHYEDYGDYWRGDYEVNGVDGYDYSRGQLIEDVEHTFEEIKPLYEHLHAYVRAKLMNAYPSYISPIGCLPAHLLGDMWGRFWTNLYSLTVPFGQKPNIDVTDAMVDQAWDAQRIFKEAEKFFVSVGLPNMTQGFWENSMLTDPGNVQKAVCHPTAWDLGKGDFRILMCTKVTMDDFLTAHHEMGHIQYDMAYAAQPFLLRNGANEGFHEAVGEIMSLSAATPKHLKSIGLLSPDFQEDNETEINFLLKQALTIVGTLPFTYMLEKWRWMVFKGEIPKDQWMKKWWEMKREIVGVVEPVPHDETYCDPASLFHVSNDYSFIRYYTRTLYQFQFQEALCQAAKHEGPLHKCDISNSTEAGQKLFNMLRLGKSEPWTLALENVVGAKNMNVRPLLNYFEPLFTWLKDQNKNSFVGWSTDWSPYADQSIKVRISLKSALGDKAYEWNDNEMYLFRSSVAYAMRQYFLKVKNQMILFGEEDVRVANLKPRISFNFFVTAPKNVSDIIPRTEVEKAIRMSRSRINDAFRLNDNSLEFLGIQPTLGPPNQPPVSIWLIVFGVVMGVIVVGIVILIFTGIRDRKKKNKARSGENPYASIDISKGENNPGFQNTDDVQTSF
Test: SPR binding (Biacore T200) of ACE2 to chip-linked biotinylated B-YL
Ends that are not written are not given here.
PROPERTY_NAME: Kd (µM)
Report as a plain number; the unit µM is understood.

For this sequence ( FPIPLPYYWLYRALIKRIQALIPKGGRLLPQLVYRLVLRYS [B-YL] ), measured Kd is 4.37

###

Biological target: SARS-CoV-2 RBD (Severe acute respiratory syndrome coronavirus 2, UniProt P0DTC2)
Assay: SPR binding (Biacore T200) of SARS-CoV-2 RBD to chip-linked biotinylated B-YL
Conditions: Table 1; aqueous SARS-CoV-2-RBD over chip-associated biotinylated B-YL; HBS-EP pH 7.4, 37 °C; KD=koff/kon
Ends that are not written are not given here.
PROPERTY_NAME: pKd
Interpret pKd as the negative base-10 log of the concentration measured in mol/L.

For this sequence ( FPIPLPYYWLYRALIKRIQALIPKGGRLLPQLVYRLVLRYS [B-YL] ), measured pKd is 4.24
